Target: REV-ERBα LBD (human; residues 281-614 Δ324-422) (Homo sapiens, UniProt P20393, DEL324-422)
Construct: 6×Histag-REV-ERBα LBD (human; residues 281-614 Δ324-422); made in house; host or cells: Escherichia coli
Sequence (P20393 with tags, fused parts or gaps DEL324-422): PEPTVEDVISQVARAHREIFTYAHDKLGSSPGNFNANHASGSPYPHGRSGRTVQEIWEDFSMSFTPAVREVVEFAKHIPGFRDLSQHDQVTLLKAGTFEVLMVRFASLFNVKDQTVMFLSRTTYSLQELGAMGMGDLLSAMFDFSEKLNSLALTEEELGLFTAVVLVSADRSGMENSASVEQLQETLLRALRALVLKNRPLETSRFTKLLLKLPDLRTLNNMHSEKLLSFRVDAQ
Sequence (Q9Y618 2335-2356 partner limits assumed): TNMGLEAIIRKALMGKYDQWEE
Experiment: TR-FRET corepressor interaction assay (REV-ERBα LBD, FITC-SMRT peptide)
Assay type: biochemical
Settings: Table 2, read-out: REVERBα agonism (EC50 class, FRET assay)
pEC50: −log10 of the molar value.
PROPERTY LABEL: pEC50

# input Fill in reported pEC50 for this entry: CC(C)Cn1cc(CCNS(=O)(=O)N(C)C)c2ccc(-c3ccccc3C(=O)OC(C)(C)C)cc21
# output 5.52 to 6.30

# input Fill in reported pEC50 for this entry: CC(C)C(=O)n1cc(CNS(=O)(=O)N(C)C)c2ccc(-c3ccnn3C)cc21
# output < 5.52

# input Fill in reported pEC50 for this entry: CC(C)(C)Cc1cn(CCNS(=O)(=O)C2CC2)c2ccc(-c3ccccn3)cc12
# output 5.52 to 6.30

# input Fill in reported pEC50 for this entry: CN(C)S(=O)(=O)NCCc1cn(Cc2ccccc2)c2cc(-c3ccncc3)ccc12
# output > 6.30

# input Fill in reported pEC50 for this entry: Cc1c(Br)ccc2c([C@H](NS(=O)(=O)C3CC3)C(F)(F)F)cn(CC(C)(C)C)c12
# output 5.52 to 6.30

# input Fill in reported pEC50 for this entry: CN(C)S(=O)(=O)NCCn1cc(CCC(F)(F)F)c2cc(Br)ccc21
# output 5.52 to 6.30
